Listed here: items and their measured pIC50.
target: CyclinA2/CDK2 (Homo sapiens, UniProt P20248); construct: purchased CRELUX Protein Services; experiment: Fluorescence Polarization (FP) competitive binding assay, Cyclin A2/Cdk2; details: 8 nM Cyclin A2/Cdk2, 2 nM FAM probe; average of 2-3 independent experiments; read-out: Cyclin A FP IC50;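 note: plates equilibrated two hours at room temperature before polarization reading, IC50 fitted from eight-concentration compound titration curves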
*1 amine or outer side, *2 acyl side, *3 side chain or, on linkers, in order; H or OH if unused. Where a SMILES comes first, the peptide text is derived from it. Bridges are numbered along the chain shown (N, C = ends). [ ]: non-standard residue; d: D form. The star is where a group is joined. X200 = CN([C@@H](Cc1cc(F)ccc1C1CCN(C(=O)C2CC2)CC1)C(=O)[*:2])[*:1]; NMehhhLys(Me) = CN([C@@H](CCCCCCCN(C)[*:3])C(=O)[*:2])[*:1]; cBuCO(3,3-F2-1-CF3) = O=C(C1(C(F)(F)F)CC(F)(F)C1)*; Pro(trans-4-F) = O=C(O)[C@@H]1C[C@@H](F)CN1; Gly(cPr) = N[C@H](C(=O)O)C1CC1
In simple prose, pIC50 is minus the logarithm base ten of a concentration in moles per litre.

Previously resolved entries follow.
compound | target | pIC50
CC(C)C[C@@H]1NC(=O)[C@@H](N(C)C(=O)[C@@H](NC(=O)[C@@H]2C[C@@H](F)CN2C(=O)C2(C(F)(F)F)CC(F)(F)C2)C2CC2)CCCCCCCN(C)C(=O)[C@H](Cc2cc(F)ccc2C2CCN(C(=O)C3CC3)CC2)N(C)C1=O [Example 101] ({cBuCO(3,3-F2-1-CF3)}-[Pro(trans-4-F)][Gly(cPr)][NMehhhLys(Me)]L[X200]; lactam 3-C) | CyclinA2/CDK2 (Homo sapiens, UniProt P20248) | 7.52
CC(C)C[C@@H]1NC(=O)[C@@H](N(C)C(=O)[C@@H](NC(=O)[C@@H]2C[C@@H](F)CN2C(=O)C2(C(F)(F)F)CC(F)(F)C2)C2CC2)CC=CCCCCN(C)C(=O)[C@H](Cc2cc(F)ccc2-c2cnn(C)c2)N(C)C1=O [Example 37] | CyclinA2/CDK2 (Homo sapiens, UniProt P20248) | 7.30
CC(C)C[C@@H]1NC(=O)[C@@H](N(C)C(=O)[C@@H](NC(=O)[C@@H]2C[C@@H](F)CN2C(=O)C2(C(F)(F)F)CCC2)C2CC2)CC=CCCCCNC(=O)[C@H](Cc2cc(Cl)ccc2Oc2ncccn2)N(C)C1=O (single isomer, unassigned) [Example 156-P2] | CyclinA2/CDK2 (Homo sapiens, UniProt P20248) | 6.46

Task: If you can, please state the reported pIC50 value of CC(=O)N1CC=C(c2ccc(Cl)cc2C[C@H]2C(=O)N(C)CCCCC=CC[C@H](N(C)C(=O)[C@@H](NC(=O)[C@@H]3C[C@@H](F)CN3C(=O)C3(C(F)(F)F)CC(F)(F)C3)C3CC3)C(=O)N[C@@H](CC(C)C)C(=O)N2C)CC1 [Example 31] .
Result: 7.52
